For each entry below, report its growth inhibition value.
- assay-name: NCI Yeast Anticancer Drug Screen. Data for the mlh1 rad18 strain (AID 175)
- run-parameters: S. cerevisiae mlh1 rad18 strain growth inhibition; at 50.0 µM; active compounds read high
- Experimental: Growth inhibition of yeast strains with defined genetic alterations is measured as a screen for potential anti-cancer activity. Selected strains with alterations in DNA damage repair or cell cycle control were exposed to compounds and growth inhibition was measured relative to vehicle treated controls. The strain used in this assay is mlh1 rad18
About 79,000 compounds went through this panel and 15% of them were active in at least one assay; those are over-represented in the sample as a whole.
Number only, in %; omit the unit.

Per the record, "O=C(Cc1ccccc1)c1ccccc1C(=O)NCc1ccccc1" has growth inhibition of -7.1

Per the record, O=C(CNC(=O)C(CCC(=O)OCc1ccccc1)NC(=O)OCc1ccccc1)NCC(=O)Oc1ccc([N+](=O)[O-])cc1 (stereo not given) has growth inhibition of 18.1

Per the record, CC(=O)OC1C(COS(=O)(=O)c2ccc(C)cc2)OCOC(COS(=O)(=O)c2ccc(C)cc2)C1OC(C)=O (stereo not given) has growth inhibition of 18.4

Per the record, N#CC1CNC(=S)N=C1c1ccccc1 (stereo not given) has growth inhibition of 12.1

Per the record, COc1cccc2c1C(CO)N1C(C#N)C3CC(C(=O)O)C(C1C2)N3C (stereo not given) has growth inhibition of -2.45

Per the record, CC(C)CCCC(C)C1CCC2C3CC([N+](=O)[O-])=C4CC(O[N+](=O)[O-])CCC4(C)C3CCC12C (stereo not given) has growth inhibition of 20.2

Per the record, "C[n+]1ccccc1/C=C/C=C/c1ccccc1" has growth inhibition of 1.9

Per the record, "N#Cc1cccc2c(S(=O)(=O)O)cccc12" has growth inhibition of -10.8

Per the record, O=S(=O)(NCC(Cl)CCl)c1ccccc1 (stereo not given) has growth inhibition of 5

Per the record, "CCC[CH2][Ge]([CH2]CCC)([CH2]CCC)[O]C(=O)CCl" has growth inhibition of 31.9

====

- assay-name: NCI Yeast Anticancer Drug Screen. Data for the bub3 strain (AID 167)
- run-parameters: S. cerevisiae bub3 mutant strain, at 50.0 µM, active compounds read high
The panel holds about 79,000 compounds, 15% with a hit somewhere; the sample as a whole holds those more often.
For each entry below, report its growth inhibition value.
Number only, in %; omit the unit.

Per the record, "NS(=O)(=O)c1ccc(NC(=O)Nc2ccccc2)cc1" has growth inhibition of 20.1

Per the record, "S=C(S)N1CCN(c2ccc(Cl)c(Cl)c2)CC1" has growth inhibition of 8.1

Per the record, "CCCCCCCCCCCCCCCCCC1=Nc2cc(C)c(C)cc2NC(=O)C1" has growth inhibition of -12.8

Per the record, COC(=O)CCC1CCC(CC2CCC(CCC(=O)OC)CC2)CC1 (stereo unspecified) has growth inhibition of -9.7

Per the record, Brc1ccc(C2CC(c3cccc4ccccc34)=Nc3ccccc3S2)cc1 (stereo unspecified) has growth inhibition of 8.7

Per the record, "CS(=O)(=O)N1CCCN(S(C)(=O)=O)COC1" has growth inhibition of 13.4

====

- assay-name: NCI Yeast Anticancer Drug Screen. Data for the mlh1 rad18 strain (AID 175)
- run-parameters: S. cerevisiae mlh1 rad18 strain growth inhibition; at 50.0 µM; active compounds read high
- Protocol: Growth inhibition of yeast strains with defined genetic alterations is measured as a screen for potential anti-cancer activity. Selected strains with alterations in DNA damage repair or cell cycle control were exposed to compounds and growth inhibition was measured relative to vehicle treated controls. The strain used in this assay is mlh1 rad18
About 79,000 compounds went through this panel and 15% of them were active in at least one assay; those are over-represented in the sample as a whole.
outcome-measure: growth inhibition (%)
Number only, in %; omit the unit.

Per the record, "CC(=O)NC1=CC(=O)c2cc(C)cc(O)c2C1=O" has growth inhibition of -14.6

Per the record, C=C1C(OC(C)=O)CC(OC(C)=O)C2(C)C(OC(C)=O)C(OC(C)=O)C3=C(C)C(OC(=O)/C=C/c4ccccc4)CC(C(OC(C)=O)C12)C3(C)C (stereo not given) has growth inhibition of 15.6

Per the record, SC1c2cc(Cl)ccc2-c2c(Cl)cc(Cl)cc21 (stereo not given) has growth inhibition of -11.8

Per the record, Cc1cn(C2CC(O)C(O)C(C)O2)c(=O)[nH]c1=O (stereo not given) has growth inhibition of 25.4

Per the record, "O.[Cl][Pt].[NH-]CC[S-]" has growth inhibition of -2

Per the record, "COc1ccccc1C(=O)N/N=C/c1ccc(O)cc1" has growth inhibition of 19.9

Per the record, COc1ccc(C(O)C(C)C(O)(C(F)(F)F)C(F)(F)F)cc1 (stereo not given) has growth inhibition of 90

Per the record, "CCCc1ccccc1[N+](=O)[O-]" has growth inhibition of -7.1

Per the record, "Nc1c(Br)cc2c(c1Br)C(=O)c1ccccc1-2" has growth inhibition of -0.05

Per the record, "CCCCCCn1cnc2c(=O)[nH]c(N)nc21" has growth inhibition of -10.2

Per the record, "Cc1nc2ccccc2n1CCC(N)=O" has growth inhibition of -2.35

Per the record, "COc1cc(C(=O)NO)c(Br)c(OC)c1OC" has growth inhibition of -3.7

Per the record, "O=C(NCCCl)Oc1cccn(C(=O)NCCCl)c1=O" has growth inhibition of -0.8

Per the record, CC1C(=O)OC(C)(C)C1(C)C (stereo not given) has growth inhibition of -10.4

Per the record, "Cc1cc(C(C)(C)C)nc(C(C)(C)C)c1" has growth inhibition of -4.85

Per the record, "Cn1ncc2c(NN)nc(Cl)nc21" has growth inhibition of 7

Per the record, "Clc1nc(-c2ccccc2)nc2ccccc12" has growth inhibition of -7.25

Per the record, "CC(C)(C)N(O)c1ccc(P(=O)(c2ccccc2)c2ccccc2)cc1" has growth inhibition of 11.8

Per the record, "Cc1cc(C)nc(NC(=O)COc2ccc(Cl)cc2)c1" has growth inhibition of -14.8

Per the record, "NNC(=O)C(CC(C(=O)NN)C(=O)NN)C(=O)NN" has growth inhibition of 29.7

Per the record, "CO[C@H]1C[C@H]2[C@@H]3CCC4=CC(=O)C=C[C@]4(C)[C@@]3(F)[C@@H](O)C[C@]2(C)[C@@]1(O)C(=O)COC(C)=O" has growth inhibition of -6.55

Per the record, CC(=O)Oc1cc2c(cc1C(NC(N)=O)c1ccc3c(c1)OCO3)OCO2 (stereo not given) has growth inhibition of 12.4

Per the record, "Cc1ccc(S(=O)(=O)NC(=O)Nc2c(-c3nc4ccccc4s3)[n+]([O-])c3ccccc3[n+]2[O-])cc1" has growth inhibition of 18.9

Per the record, CC12CCC(C/C1=N\N=C(N)N)C2(C)C (stereo not given) has growth inhibition of 6.2

Per the record, "Cc1cc2nc3[nH]c(=O)c4c(n3c2cc1C)CCC4" has growth inhibition of -15.2

====

For each entry below, report its growth inhibition value.
- assay-name: NCI Yeast Anticancer Drug Screen. Data for the bub3 strain (AID 167)
- run-parameters: S. cerevisiae bub3 mutant strain, at 50.0 µM, active compounds read high
The panel holds about 79,000 compounds, 15% with a hit somewhere; the sample as a whole holds those more often.
Number only, in %; omit the unit.

Per the record, "C(/C=N/NC1=NCCCCN1)=N\NC1=NCCCCN1" has growth inhibition of -13.6

Per the record, COc1cccc2c1[C@@]1(C)C3C(=O)OC(C)(c4ccccc43)[C@@]1(C)C2=O (some centres not stated) has growth inhibition of -4.1

Per the record, "C=C(S(=O)(=O)CC)S(=O)(=O)CC" has growth inhibition of -6.5

Per the record, "O=S(=O)(Cc1c(Cl)c(Cl)c(Cl)c(Cl)c1Cl)c1ccc(Cl)cc1" has growth inhibition of 2.4

Per the record, CN(C(=S)NNC(=O)C1CCC(=O)N1)c1ccccc1 (configuration not stated) has growth inhibition of 21.4

Per the record, CC(=O)C1CCC2C3CCC4CC5(CCC4(C)C3C(=O)CC12C)NC(C(=O)O)CS5 (configuration not stated) has growth inhibition of -0.6

Per the record, "Cc1cc(C)nc(N(C)CCN2CCCCC2)c1" has growth inhibition of 5.45

Per the record, "COc1ccc(-c2cc(-c3ccccc3)n[nH]2)cc1" has growth inhibition of 47.9

Per the record, CCOC(=O)C1CC(CCl)OC1=O (configuration not stated) has growth inhibition of 0.6

Per the record, "Nc1cc(C(=O)O)cc2ccccc12" has growth inhibition of -2.95

Per the record, "CCOC(=O)CSc1nc(-c2ccc(Cl)cc2)c(C#N)c(=O)[nH]1" has growth inhibition of 8.85

Per the record, "CC(=O)N(C(C)=O)n1c(Cc2ccc(C)cc2)nn(C(C)=O)c1=O" has growth inhibition of -1.75
